Assay overview: Cellular uptake in mouse DA-3 cell nucleus at 10 uM after 30 mins by DRAQ5 deep red staining-based confocal microscopic analysis relative to control
Assay type: ADME
Condition set: da-3, 0.5 h

# Smi, Drug uptake
data = [
    ("C[C@@H]1O[C@@H](OCc2cc(O)c3c(c2)C(=O)c2cccc(O)c2C3=O)C[C@H](N)[C@H]1O", "Not Active"),
    ("COc1cccc2c1C(=O)c1c(O)c3c(c(O)c1C2=O)C[C@@](O)(C(C)=O)C[C@@H]3O[C@H]1C[C@H](N)[C@H](O)[C@H](C)O1", "Not Active"),
    ("Cc1c(O)c2c(c(O)c1CO[C@H]1C[C@H](N)[C@@H](O)[C@H](C)O1)C(=O)c1ccccc1C2=O", "Not Active"),
    ("COc1cccc2c1C(=O)c1c(O)c3c(c(O)c1C2=O)C[C@@](O)(C(=O)CO)C[C@@H]3O[C@H]1C[C@H](N)[C@H](O)[C@H](C)O1", "41.43%"),
]
